# Study System: Mu-type opioid receptor (Rattus norvegicus)
# Sequence (P33535 whole entry): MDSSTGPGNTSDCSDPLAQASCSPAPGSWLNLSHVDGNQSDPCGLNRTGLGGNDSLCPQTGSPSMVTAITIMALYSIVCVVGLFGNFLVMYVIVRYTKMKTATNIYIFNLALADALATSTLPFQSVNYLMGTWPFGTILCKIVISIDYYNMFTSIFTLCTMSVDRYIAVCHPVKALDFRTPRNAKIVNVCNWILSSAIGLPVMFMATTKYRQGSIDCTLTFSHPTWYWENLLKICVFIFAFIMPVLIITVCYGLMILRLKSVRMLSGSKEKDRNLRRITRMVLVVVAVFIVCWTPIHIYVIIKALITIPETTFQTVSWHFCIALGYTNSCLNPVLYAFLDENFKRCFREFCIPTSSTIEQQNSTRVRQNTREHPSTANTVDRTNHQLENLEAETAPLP
# Measurement Description: Inhibition of [3H]dihydromorphine (1 nM) binding to mu opioid receptor of rat brain homogenate
Criterion: Ki strictly under 90 nM. Met: y. Not met: n.

Molecular String: CC[C@H](C)N(C[C@H](O)[C@@H]1CCC(=O)N1Cc1ccccc1Cl)[C@@H](C)CC
Category Label: n
//
Molecular String: CC[C@@H](C)N(C[C@@H](O)[C@@H]1CCC(=O)N1Cc1ccccc1Cl)[C@@H](C)CC
Category Label: n
//
Molecular String: CC[C@@H](C)N(C[C@@H](O)[C@H]1CCC(=O)N1Cc1ccccc1Cl)[C@H](C)CC
Category Label: y
//
Molecular String: CC[C@@H](C)N(C[C@H](O)[C@H]1CCC(=O)N1Cc1ccccc1Cl)[C@@H](C)CC
Category Label: n

Enquiry: Could you please tell me whether Ki recorded for CC[C@H](C)N(C[C@H](O)[C@H]1CCC(=O)N1Cc1ccccc1Cl)[C@@H](C)CC is less than 90 nM?
Return: n

Enquiry: Please check: Ki for CC[C@@H](C)N(C[C@@H](O)[C@@H]1CCC(=O)N1Cc1ccccc1Cl)[C@H](C)CC , strictly under 90 nM or not?
Return: n

Enquiry: Answer whether the molecule CC[C@@H](C)N(C[C@@H](O)[C@H]1CCC(=O)N1Cc1ccccc1Cl)[C@@H](C)CC has Ki strictly less than 90 nM
Return: y

Enquiry: Would you kindly verify if Ki of CC[C@@H](C)N(C[C@H](O)[C@@H]1CCC(=O)N1Cc1ccccc1Cl)[C@H](C)CC is strictly less than 90 nM?
Return: y

Enquiry: Check if Ki falls below 90 nM for CC[C@H](C)N(C[C@@H](O)[C@@H]1CCC(=O)N1Cc1ccccc1Cl)[C@@H](C)CC .
Return: n

Enquiry: Answer whether the molecule CC[C@@H](C)N(C[C@H](O)[C@H]1CCC(=O)N1Cc1ccccc1Cl)[C@H](C)CC has Ki strictly less than 90 nM
Return: n

Enquiry: Say whether its Ki is strictly beneath 90 nM. Entry: CC[C@H](C)N(C[C@@H](O)[C@H]1CCC(=O)N1Cc1ccccc1Cl)[C@@H](C)CC
Return: n

Enquiry: Please check: Ki for CC[C@@H](C)N(C[C@H](O)[C@@H]1CCC(=O)N1Cc1ccccc1Cl)[C@@H](C)CC , strictly under 90 nM or not?
Return: y
